- assay overview: NCI Yeast Anticancer Drug Screen. Data for the bub3 strain (AID 167)
- test context: S. cerevisiae bub3 mutant strain, at 50.0 µM (retest, dose inferred, filed as 5.0), hits give high values
Compounds without any hit were thinned out: in the full panel of roughly 79,000, 15% have a hit. The source made the active and inactive calls. Cut-off read from the data, not from the text of the source: active = growth inhibition above about 70%; inactive = the rest.
recorded metric: growth inhibition

Reference set (10 entries):
compound="O=S1(=O)c2ccccc2C(O)(c2ccccc2)c2cc3ccccc3n21 (configuration not stated)" recorded_metric="growth inhibition" endpoint_result="96% (active)"
compound=NCc1ccc(O)c(O)c1O recorded_metric="growth inhibition" endpoint_result="82% (active)"
compound=O=C(O)c1ccc2c(c1)CCCC2 recorded_metric="growth inhibition" endpoint_result="-70% (inactive)"
compound=Cc1ccc(C)c(NC(=O)CCC(=O)CC(=O)c2ccncc2)c1 recorded_metric="growth inhibition" endpoint_result="4% (inactive)"
compound=CN(C)C=Nc1c2ccccc2nc2ccccc12 recorded_metric="growth inhibition" endpoint_result="71% (active)"
compound=O=C(CC(=O)c1cccnc1)c1cccnc1 recorded_metric="growth inhibition" endpoint_result="98% (active)"
compound=CC(=O)Nc1ccc(S(=O)(=O)/N=C2\C=CC(=O)c3ccccc32)cc1 recorded_metric="growth inhibition" endpoint_result="14% (inactive)"
compound="CC(C)CC(CC(C)C)NCC(C)OC(=O)C(c1ccccc1)c1ccccc1 (configuration not stated)" recorded_metric="growth inhibition" endpoint_result="93% (active)"
compound="O=C(CCCN1CCC2(CC1)CC(c1ccccc1)OC2=O)c1ccc(F)cc1 (configuration not stated)" recorded_metric="growth inhibition" endpoint_result="90% (active)"
compound="NC(=O)NOCC1NC(=O)NC1=O (configuration not stated)" recorded_metric="growth inhibition" endpoint_result="-3% (inactive)"

What the record says about `CSc1cc2c(cc1N)Cc1cc(F)ccc1-2` : growth inhibition is 84% (active)

Summary for this compound, `CCOC(=O)c1cnc2cc3cccccc3n2c1=O` : growth inhibition is 67% (inactive)

====

- assay overview: NCI Yeast Anticancer Drug Screen. Data for the cln2 rad14 strain (AID 165);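 note: 0% = growth equal to vehicle treated cultures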
- test context: S. cerevisiae cln2 rad14 strain, at 50.0 µM
The panel holds about 79,000 compounds, 15% with a hit somewhere; the sample as a whole holds those more often. Active and inactive are the calls of the source. Cut-off read from the data, not from the text of the source: active = growth inhibition above about 70%; inactive = the rest.
Mark one answer only. Choices: active, inactive

compound=OC(Cn1cncn1)(Cn1cncn1)c1ccc(Cl)cc1Cl category_label=inactive
compound="CC12CCC(O)CC1=CCC1C2CCC2(C)/C(=C\\C#N)CCC12 (stereo not given)" category_label=inactive
compound="COc1cc(C2C=C(c3ccccc3)Oc3cc4c(cc32)OCO4)cc(OC)c1OC (stereo not given)" category_label=inactive

Returns: the outcome recorded for NC(Cc1ccc(O)cc1O)C(=O)O (stereo not given) in this assay. active

Called result for `COC(=O)c1ccc2ccccc2c1` inactive

Write down the call the test reported for this compound. Item: COc1ccc(C(=O)C(C(c2ccccc2)N2CCc3ccccc3C2)N2CCc3ccccc3C2)cc1 (stereo not given) inactive

====

- assay overview: NCI Yeast Anticancer Drug Screen. Data for the mec2-1 strain (AID 157)
- test context: S. cerevisiae mec2-1 strain, at 50.0 µM, hits give high values
The panel holds about 79,000 compounds, 15% with a hit somewhere; the sample as a whole holds those more often.
recorded metric: growth inhibition (%)
API: value field is a number in %; no unit string.

# annotated cases, reported growth inhibition shown
compound=CC(C)COP(=O)(OCC(C)C)C(NS(=O)(=O)c1ccccc1)(C(F)(F)F)C(F)(F)F recorded_metric="growth inhibition" unit_symbol=% endpoint_result=82.7
compound=CC(=O)N(C1=C(Cl)C(=O)c2ccccc2C1=O)c1ccc(C)cc1 recorded_metric="growth inhibition" unit_symbol=% endpoint_result=99.5
compound=NC(=Nc1ccccc1)SCc1ccc([N+](=O)[O-])cc1 recorded_metric="growth inhibition" unit_symbol=% endpoint_result=43
compound=C[N+](C)([O-])CCC=C1c2ccccc2CCc2ccccc21 recorded_metric="growth inhibition" unit_symbol=% endpoint_result=28.4
compound="COC(=O)N/N=C(/CC1(O)C(=O)Nc2ccccc21)c1ccc(Cl)cc1Cl (stereo unspecified)" recorded_metric="growth inhibition" unit_symbol=% endpoint_result=98.5
compound="COc1ccc(C2C3CCCC(C3=O)C(c3ccc(OC)cc3)N2N=O)cc1 (stereo unspecified)" recorded_metric="growth inhibition" unit_symbol=% endpoint_result=86.9
compound=CN1/C(=C/C=C/C(I)=C/C=C/C2=[N+](C)c3ccccc3C2(C)C)C(C)(C)c2ccccc21 recorded_metric="growth inhibition" unit_symbol=% endpoint_result=50.1
compound=C=C(c1ccccc1)[P+](c1ccccc1)(c1ccccc1)c1ccccc1 recorded_metric="growth inhibition" unit_symbol=% endpoint_result=99.6

What the record says about `O=C(O)CCCCCCCCC(=O)CCl` : growth inhibition is 99.5

growth inhibition reading for C=CCC1=C(C)C(OC(=O)/C=C/c2ccccc2Cl)CC1=O (stereo unspecified) : 85.1

Field growth inhibition (entry `Cc1ccccc1N=Nc1c(C)nn(C(N)=S)c1-c1ccccc1` ) reads 57.1

====

- assay overview: NCI Yeast Anticancer Drug Screen. Data for the rad50 strain (AID 155);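 note: 0% = growth of vehicle-only cultures of the same strain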
- test context: S. cerevisiae rad50 strain growth inhibition; at 50.0 µM
This is part of a sample that, as a whole, favours compounds with a hit. Of some 79,000 tested, about 15% had one in any assay. Active and inactive are the calls of the source. Rule as the data show it: active = growth inhibition above about 70%; inactive = the rest.
Use one of these outcomes when replying: True (active), False (inactive)

Here's what some known entries look like.
compound=NC(=O)Nc1cc(=O)[nH]c(=S)[nH]1 category_label=False
compound=O=c1c2ccccc2c2ccccc2n1O category_label=True
compound="CCC(c1ccc(OC)cc1)C(CC)c1ccc(O)c(CN(C)C)c1 (stereo not given)" category_label=False

How did this test come out for O=C(/N=C1\N=Nc2nc(C(C(=O)c3cccs3)c3nc4n(c3O)/C(=N/C(=O)Nc3ccc(Cl)cc3)N=N4)c(O)n21)Nc1ccc(Cl)cc1 (stereo not given) ? False

Check the results log: what was the call for `O=C(OCc1ccccc1)N(CCCCN(CCCNCc1ccccc1)C(=O)OCc1ccccc1)CCCNCc1ccccc1` ? True

====

- assay overview: NCI Yeast Anticancer Drug Screen. Data for the cln2 rad14 strain (AID 165);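 note: 0% = growth equal to vehicle treated cultures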
- test context: S. cerevisiae cln2 rad14 strain, at 50.0 µM (retest, dose inferred, filed as 5.0)
The panel holds about 79,000 compounds, 15% with a hit somewhere; the sample as a whole holds those more often. Activity calls are given as the source filed them. No stated cut-off is given here; in the data, active means growth inhibition above about 70%; inactive means the rest.
Give your call using only these classes: yes = active, no = inactive

Completed entries (count: 3):
compound=COC(=O)c1nc(N)nc(C(=O)OC)c1C(=O)c1ccccc1 category_label=no
compound="COc1cc(C2C(Cl)C(=O)N2NC(=O)c2ccc(NC(C)=O)cc2)cc(OC)c1OC (stereo not given)" category_label=no
compound=CCCCCC(CCCCC)OC(=O)CCN(CCCCC)CCCCC category_label=yes

Entry CCCCCCCCCCCCCCCC[N+](C)(C)C(C)c1ccc(OC)cc1 (stereo not given) : call = ? yes

How was `OC/C(=C\c1ccccc1Br)c1ccccc1Br` classified in this test? yes

Test call for this compound, please: `CSC1=NSC(c2ccccc2)=C(c2ccccc2)S1` yes

====

- assay overview: NCI Yeast Anticancer Drug Screen. Data for the sgs1 mgt1 strain (AID 161);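 note: 0% = growth of cultures given vehicle only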
- test context: S. cerevisiae sgs1 mgt1 strain, at 50.0 µM (retest, dose inferred, filed as 5.0)
About 79,000 compounds went through this panel and 15% of them were active in at least one assay; those are over-represented in the sample as a whole. Activity calls are given as the source filed them. No stated cut-off is given here; in the data, active means growth inhibition above about 70%; inactive means the rest.
The reply should name one outcome from 1 (active), -1 (inactive)

Worked cases, answers included:
molecule=C=CCc1ccc2c(C)cc[n+](C)c2c1O category_label=1
molecule="CCC(C)C(C(=O)NOC(=O)c1ccccc1)/C(N)=N/OC(=O)c1ccccc1 (stereo unspecified)" category_label=1
molecule=CCCCNCc1c(O)ccc2ccccc12 category_label=1
molecule="COc1cccc(C(c2cc3c(cc2O)OCO3)N2CCCC2)c1O (stereo unspecified)" category_label=-1
molecule=Cc1cc(=O)n(-c2ccc(F)cc2)n1C category_label=-1

Now, please, on to the next molecule.
What call does the record list for `O=S(=O)(Nc1ccc(-c2ccc(Cl)cc2)cc1)c1ccccc1` ? -1

====

- assay overview: NCI Yeast Anticancer Drug Screen. Data for the mec2-1 strain (AID 157)
- test context: S. cerevisiae mec2-1 strain, at 50.0 µM, hits give high values
The panel holds about 79,000 compounds, 15% with a hit somewhere; the sample as a whole holds those more often.
Binary call on growth inhibition: fulfilled from 70% upward, not fulfilled beneath that.

mol_smiles=O=C1c2ccccc2C(=O)c2ncccc21 category_label=fulfilled
mol_smiles=Cc1cc(N/N=C(\c2ccccc2)c2ccccn2)nc2ccccc12 category_label=fulfilled
mol_smiles=C#CCN1CCN(C(=S)N/N=C(\C)c2ccccn2)CC1 category_label=fulfilled
mol_smiles=Cc1ccc(S(=O)(=O)NNC(=O)c2sc(-c3nc(C)c(C(=O)NNS(=O)(=O)c4ccc(C)cc4)s3)nc2C)cc1 category_label="not fulfilled"
mol_smiles=CN(C)CCOC(=O)c1ccccc1 category_label="not fulfilled"
mol_smiles=C/C(=N\NC(=S)Nc1ccc(S(N)(=O)=O)cc1)c1ccccn1 category_label="not fulfilled"
mol_smiles=COc1ccc(/C=C2\SC(=S)N(/C=C(/C#N)C(=O)c3ccc4ccccc4c3)C2=O)cc1OC category_label=fulfilled
mol_smiles=CC(C)CCOC(=O)c1ccc(O)cc1.[Zn+2] category_label="not fulfilled"

Does `C/C(=N/NC(=S)Nc1cccc(Cl)c1)c1ccccn1` have a reported growth inhibition of at least 70%? fulfilled

Could you tell me if the measured growth inhibition of `Clc1ccc(C2=NCON=C2c2ccc(Cl)cc2)cc1` reaches 70% or more? fulfilled

Entry `Cc1ccc2c(c1)[n+]([O-])c(N)n[n+]2[O-]` : is its growth inhibition no less than 70%? not fulfilled
